Measured Kill % S. h, listed per entry.
Test system: S. haematobium adult schistosomes
ASSAY: Schistosomiasis screening, adult worm killing (S. haematobium)
Type: cell-based, Schistosoma haematobium
CONDITION_SET: adult worms, final concentration 143 μM, 45 minutes incubation, washed, cultured 10-14 days, read day 14
PROPERTY: Kill % S. h (%)

>  <COMPOUND>
C[C@@H](O)[C@H]1C(=O)N2C(C(=O)O)=C(S[C@@H]3CN[C@H](C(=O)Nc4cccc(C(=O)O)c4)C3)[C@H](C)[C@H]12 [CIDD-0150610]

>  <MEASUREMENT>
100

$$$$
>  <COMPOUND>
O=[N+]([O-])c1cc(NCC2(Cc3cccc(C(F)(F)F)c3)CCN(Cc3c[nH]c4ccccc34)C2)ccc1CO (stereo not drawn) [CIDD-0149830]

>  <MEASUREMENT>
100

$$$$
>  <COMPOUND>
O=S([O-])([O-])=S.O=S([O-])([O-])=S.[Ag+].[Na+].[Na+].[Na+] [CIDD-0150303]

>  <MEASUREMENT>
40

$$$$
>  <COMPOUND>
Cn1c([N+](=O)[O-])nc2ccc3ccccc3c21 [CIDD-0150606]

>  <MEASUREMENT>
85.7

$$$$
>  <COMPOUND>
O=C(O)CCCn1c2ccccc2c(=O)c2ccccc21 [CIDD-0150302]

>  <MEASUREMENT>
20

$$$$
>  <COMPOUND>
O=Nc1ccc2ccc3cc4ccccc4c4ccc1c2c34 [CIDD-0150608]

>  <MEASUREMENT>
71.4

$$$$

Data provenance: patent US20220227709A1
